Recorded Percent Mortality of Cotton Aphid on Cotton Plants for the following molecules
# Tested on: cotton aphid (Aphis gossypii)
# protocol.details: Cotton aphid test in the same manner, more definitive percent mortality at selected rates and exposure times (Table 3)
# Assay type: in vivo
# condition.parameters: 100 ppm; 72 hours exposure
Be sure to follow the number with its unit.

Some entries whose results are on file:
smiles.entry: CCc1ccc2c(c1)C(=C1CCN(C)CC1)c1ccccc1O2
endpoint.value: 26%
--
smiles.entry: CN1CCC(=C2c3ccccc3Oc3ccc(F)cc32)CC1
endpoint.value: 26%

Now, please, on to the next molecule.
Entry CCOC(=O)CCN1CCC(=C2c3ccccc3Oc3ccccc32)CC1 , Percent Mortality of Cotton Aphid on Cotton Plants reported as 37%
